Attribution: paper PMC5540273

// values below are reported %Inh
# System: GCN2(Kin.Dom.2,S808G)
# Construct: gene EIF2AK4
# TEST_PARAMETERS: concentration: 1 μM, replicates: in singlicate; n = 1;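 further: KINOMEscan kinase panel screen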
Give just the numeric value; % need not be written.

>>> observed_result("COc1cc2nccc(Nc3ccc(OCc4ccc(NC(C)=O)cc4)cc3)c2cc1OC.Cl")
4
>>> observed_result("Cc1nc(N(C)[C@H]2CN(C(=O)CC#N)CC[C@H]2C)c2cc[nH]c2n1")
0
>>> observed_result("O=C(Nc1n[nH]c2nc(-c3ccccc3)c(Cl)cc12)C1CC1")
0
>>> observed_result("C[C@@H]1CC[C@H](C(=O)NC2CCCCC2)CN1c1cc(-c2ccc3c(N)n[nH]c3c2)nc(N)n1")
0
>>> observed_result("CCC(=O)c1c(-c2ccccc2)c2cc(Cl)ccc2c(=O)n1Cc1ccc(C(=O)O)cc1")
12

Entry COc1cccc(C2=C(N(C)c3ccccc3)C(=O)NC2=O)c1 , %Inh reported as 0

response.value for Cc1ccc(-c2ccc3c(ccc4sc5c(c43)NC[C@@H](C)N=C5N(C)C)n2)cn1 (field: %Inh) = 0

Notebook: COc1ccc(-c2cc3c(C)nc(N)nc3n([C@H]3CC[C@H](OCCO)CC3)c2=O)cn1 , %Inh read as 0

The molecule COc1ccc(CNC(=O)NC2CCN(c3ccnc(Nc4ccc(F)cc4)n3)C2)cc1 (stereo not drawn) showed %Inh equal to 4

Value of measured %Inh for the entry Cl.NS(=O)(=O)c1cccc(Nc2cc(-c3ccc(F)cc3)n[nH]2)c1 : 0

Documented %Inh of O=C(NCCNc1ccnc(Nc2ccc(F)cc2)n1)Nc1ccc2c(c1)OCO2 : 0

Quick note, %Inh for Nc1n[nH]c2ncc(-c3ccccc3)cc12 landed at 52

Noted for COc1cc(Nc2nccc(N3CCC(NC(=O)C(C)c4ccc(Cl)cc4)C3)n2)cc(OC)c1OC (stereo not drawn) : its %Inh reads 0

Record CN(C)c1cc(-c2ccc3c(N)n[nH]c3c2)nc(N)n1 , field %Inh: 0

Sure, the documented %Inh for Nc1nccc2scc(-c3ccc4c(c3)CCN4C(=O)Cc3ccccc3)c12 is 0

* * *

# Tested on: PIP5K1C
# TEST_PARAMETERS: concentration: 1 μM, replicates: in singlicate; n = 1
PROPERTY_MEASURED: %Inh (%)
Numeric answer only, unit % assumed.

>>> observed_result("O=C(Nc1ccc2c(c1)OCO2)NC1CCN(c2ccnc(NCc3ccc(F)cc3)n2)CC1 [GSK1379859]")
19
>>> observed_result("Cc1c(Cn2c(C)nn3c(=O)cc(N4CCO[C@H](C)C4)nc23)cccc1C(F)(F)F [GSK2373690]")
13
>>> observed_result("CCS(=O)c1ccc(-c2coc3ccc(-c4nnc(C)o4)cc23)cc1 (centres unmarked)")
13
>>> observed_result("COc1cc2nccc(Nc3cccc(Oc4ccccc4)c3)c2cc1OC.Cl [GW284543]")
48
>>> observed_result("Cc1ccccc1COc1cc(-n2cnc3cc(Cl)ccc32)sc1C(N)=O [GW813349]")
37
>>> observed_result("Nc1ncnc2c1ncn2-c1ccc(Cl)cc1 [AH2635]")
57
>>> observed_result("CC(C)(C)c1ccc(C(=O)Nc2cn3cc(-c4ccccc4)ccc3n2)cc1")
32
>>> observed_result("COc1cc(Nc2nccc(N3CCC(NC(=O)C(C)c4ccc(Cl)cc4)C3)n2)cc(OC)c1OC (centres unmarked) [GSK1379757]")
35
>>> observed_result("CN1C(=O)C(Nc2ccccc2)=C(c2ccccc2)C1=O [SB-300079]")
23
>>> observed_result("Cc1nn2c(=O)cc(N3CCOCC3)nc2n1Cc1cccc(Cl)c1Cl [GSK2342769]")
12

Note: attention shifts to another entry.
For O=C(NCCNc1ccnc(Nc2ccc(F)cc2)n1)Nc1ccc2c(c1)OCO2 [GSK1379882] the compound record lists %Inh as 66

* * *

List of %Inh values.
# System: TIE2
# Construct: gene TEK
# TEST_PARAMETERS: concentration: 1 μM, replicates: in singlicate; n = 1
Response body: numeric value in %, unit text excluded.

>>> observed_result("COc1cc2ncn(-c3cc(OCc4ccncc4)c(C(N)=O)s3)c2cc1OC")
7

Now, please, on to the next compound.
Memo: C[C@@H]1CC[C@H](C(=O)NC2CCCCC2)CN1c1cc(-c2ccc3c(N)n[nH]c3c2)nc(N)n1 , reported %Inh: 0

* * *

Each entry below carries its recorded %Inh.
# System: GRK1
# TEST_PARAMETERS: concentration: 1 μM, replicates: in singlicate; n = 1
// note: answer is a bare numeric in %

>>> observed_result("FC(F)(F)c1ccc(-c2ncn(CCCN3CCOCC3)c2-c2ccncc2)cc1 [SB-217780]")
12

Per the record, Nc1nc(N)c2nc(-c3ccccc3)[nH]c2n1 [SKF-12778] has %Inh of 5

GET /value?item= Fc1cccc(CSc2nnc(-c3ccc4c(c3)CCO4)o2)c1 &field=%Inh returns 7

Given item O=C(Nc1n[nH]c2nc(-c3ccccc3)c(Br)cc12)C1CC1 [SB-708998] , the value recorded as its %Inh is 0

%Inh measured on CCCC(=O)Nc1n[nH]c2ncc(-c3cccc4ccccc34)cc12 [SB-642057] = 0

What the record says about COc1cc2ncn(-c3cc(OCc4ccncc4Br)c(C(N)=O)s3)c2cc1OC [GW854278] : %Inh is 0

For COc1ccc(-c2cc3c(C)nc(N)nc3n([C@H]3CC[C@H](O)CC3)c2=O)cn1 the compound record lists %Inh as 0

Input O=C(Nc1ccc2c(c1)OCO2)NC1CCN(c2ccnc(NCc3ccc(F)cc3)n2)CC1 [GSK1379859] . Output %Inh: 0

// recorded %Inh for Cc1nc(N(C)[C@H]2CN(C(=O)CC#N)CC[C@H]2C)c2cc[nH]c2n1 : 0

* * *

# Tested on: TIE1
# TEST_PARAMETERS: concentration: 1 μM, replicates: in singlicate; n = 1
Output Met for records whose %Inh is lower than 8%, Not met for records at or above 8%.

Example results:
>>> class("COc1ccc(Nc2nccc(N3CCC(NS(=O)(=O)c4ccc(NC(C)=O)cc4)C3)n2)cc1 (stereo not shown)")
"Not met"
>>> class("CCc1nc(-c2cccc(C)c2)c(-c2ccncc2)s1")
"Met"
>>> class("Nc1n[nH]c2ncc(-c3ccccc3)cc12")
"Not met"
>>> class("COC(=O)c1c(-c2ccccc2)c2cc(Br)ccc2c(=O)n1Cc1ccc(S(C)(=O)=O)cc1")
"Not met"
>>> class("O=C(Nc1n[nH]c2cc(-c3ccccc3F)ccc12)C1CC1")
"Met"

Request: Just wondering, is %Inh of COc1ccc(-c2cc3c(C)nc(N)nc3n([C@H]3CC[C@H](OCCO)CC3)c2=O)cn1 below 8%?
Result: Met

* * *

# Tested on: SRMS
# TEST_PARAMETERS: concentration: 1 μM, replicates: in singlicate; n = 1
Measured %Inh values are reported for all entries that follow.
The reply should read as a number followed by its unit.

>>> observed_result("COc1ccc(-c2cc3c(C)nc(N)nc3n([C@H]3CC[C@H](OCCO)CC3)c2=O)cn1")
"1%"
>>> observed_result("OCCCNc1nccc(-c2c(-c3cccc(C(F)(F)F)c3)nn3cc(C(F)(F)F)ccc23)n1")
"0%"
>>> observed_result("O=C(Nc1n[nH]c2nc(-c3ccccc3)c(Br)cc12)C1CC1")
"0%"
>>> observed_result("CCc1ccc(-c2ccc3c(c2)-c2nn(C)cc2S(=O)(=O)N3C)cc1")
"46%"

// moving on: another record for %Inh
# %Inh of COc1cc(OC)cc(-c2cc3cnc(N)nc3nc2NC(=O)NC(C)(C)C)c1 = 0%

* * *

# Test system: MST2
# Construct: gene STK3
# TEST_PARAMETERS: concentration: 1 μM, replicates: in singlicate; n = 1
PROPERTY_MEASURED: %Inh (%)
Quick reminder: number only, in %, skip the unit.

Below: 5 compounds and their reported %Inh.
>>> observed_result("C[C@@H]1CC[C@H](C(=O)NC2CCCCC2)CN1c1cc(-c2ccc3c(N)n[nH]c3c2)nc(N)n1 [GSK2291363]")
0
>>> observed_result("CCc1ccc(-c2ccc3c(c2)-c2nn(C)cc2S(=O)(=O)N3C)cc1")
0
>>> observed_result("Cl.NS(=O)(=O)c1cccc(Nc2cc(-c3ccc(F)cc3)n[nH]2)c1 [GW824645]")
14
>>> observed_result("CC(C)(C)c1ccc(C(=O)Nc2cn3cc(-c4ccccc4)ccc3n2)cc1")
43
>>> observed_result("Fc1cccc(CSc2nnc(-c3ccc4c(c3)CCO4)o2)c1")
0

Sample O=C(Nc1n[nH]c2nc(-c3ccccc3)c(Cl)cc12)C1CC1 [SB-734909] ; %Inh observed: 50

Sure, the documented %Inh for Cc1nnc(-c2ccc3ncn(-c4ccc(S(C)=O)cc4)c3c2)o1 (stereo not drawn) is 30

Recorded result, CCC(=O)c1c(-c2ccccc2)c2cc(Cl)ccc2c(=O)n1Cc1cc(C(=O)NC2CC2)n(C)n1 , %Inh: 0

Sure, the documented %Inh for COc1ccc(-c2cc3c(C)nc(N)nc3n([C@H]3CC[C@H](OCCO)CC3)c2=O)cn1 is 0

The compound listed as O=C(Nc1n[nH]c2cc(-c3ccccc3F)ccc12)C1CC1 [SB-733371] shows %Inh equal to 0

Sample Nc1n[nH]c2nnc(-c3ccccc3)c(-c3ccccc3)c12 [GW554060] ; %Inh observed: 0

Value of %Inh reported for the compound CCC(=O)c1c(-c2ccccc2)c2cc(Cl)ccc2c(=O)n1Cc1cc(S(C)(=O)=O)n(CC(F)F)n1 is 0

Record Cc1ccc(Oc2ccc(Nc3ncnc4cc[nH]c34)cc2C)cn1 . Reported %Inh: 15

The measured %Inh associated with Cc1nc(N(C)[C@H]2CN(C(=O)CC#N)CC[C@H]2C)c2cc[nH]c2n1 reads 37

What the record says about Cn1c(=O)c(F)c(Nc2ccc(I)cc2F)c2c(=O)n(OC[C@H](O)CO)cnc21 : %Inh is 0

Measured %Inh of CCC(=O)c1c(-c2ccccc2)c2cc(Cl)ccc2c(=O)n1Cc1cc(S(C)(=O)=O)n(CC(N)=O)n1 : 0

Recorded result, OCCCNc1nccc(-c2c(-c3cccc(C(F)(F)F)c3)nn3cc(C(F)(F)F)ccc23)n1 [GW630813] , %Inh: 0

Per the records, this compound ( COc1ccc(-c2cc3c(C)nc(N)nc3n([C@H]3CC[C@H](O)CC3)c2=O)cn1 ) has %Inh equal to 0
